Target: Recombinant human NK3 (hNK3) receptor (Homo sapiens, UniProt P29371)
Construct: expressed in transfected cells
Sequence (P29371 whole entry): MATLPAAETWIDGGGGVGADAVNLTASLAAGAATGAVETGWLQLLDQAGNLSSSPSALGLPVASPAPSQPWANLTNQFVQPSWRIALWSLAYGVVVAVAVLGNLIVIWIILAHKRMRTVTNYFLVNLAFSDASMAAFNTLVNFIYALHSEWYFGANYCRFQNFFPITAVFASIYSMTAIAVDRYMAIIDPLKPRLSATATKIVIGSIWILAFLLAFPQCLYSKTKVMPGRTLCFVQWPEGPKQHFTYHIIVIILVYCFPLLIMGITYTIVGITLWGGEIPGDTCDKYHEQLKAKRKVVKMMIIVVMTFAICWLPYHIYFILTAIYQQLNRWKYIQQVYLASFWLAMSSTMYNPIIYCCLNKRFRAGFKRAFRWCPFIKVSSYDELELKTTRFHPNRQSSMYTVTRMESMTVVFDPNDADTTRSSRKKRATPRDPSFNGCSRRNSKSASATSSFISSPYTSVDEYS
Test: NK3 receptor affinity, [3H]SR142801 binding
Settings: hNK3 receptor membranes, [3H]SR142801 0.3 nM; read-out: pki NK3 (converted)
Procedure: Recombinant human NK3 (hNK3) receptor affinity was determined in a 96 well plate assay, using [^3H]SR142801 (final concentration 0.3 nM) to radiolabel the hNK3 receptor in the presence of 10 concentrations of competing compound or buffer. Non specific binding was determined using 10 μM SB222200. Assay buffer consisted of Tris-HCl (50 mM, pH 7.4), BSA (0.1%), MnCl2 (4 mM) and phosphoramidon (1 μM). […]
Field 'label' (enum: 1 / -1). Set to 1 when Ki is strictly under 10 nM; else -1.

{"Compound": "Cc1cc(F)ccc1-c1cc(C2CCN(S(C)(=O)=O)CC2)ncc1N(C)C(=O)C(C)(C)c1cc(C(F)(F)F)cc(C(F)(F)F)c1 [Example 11]", "Discrete Label": 1}
{"Compound": "CN(C(=O)C(C)(C)c1cc(C(F)(F)F)cc(C(F)(F)F)c1)c1cnc(OCCO)cc1-c1ccccc1Cl [Example 1]", "Discrete Label": -1}
{"Compound": "Cc1cc(F)ccc1-c1cc(C2CCS(=O)(=O)CC2)ncc1N(C)C(=O)C(C)(C)c1cc(C(F)(F)F)cc(C(F)(F)F)c1 [Example 16]", "Discrete Label": -1}
{"Compound": "Cc1cc(F)ccc1-c1cc(-c2ccnc(CO)c2)ncc1N(C)C(=O)C(C)(C)c1cc(C(F)(F)F)cc(C(F)(F)F)c1 [Example 9]", "Discrete Label": -1}
{"Compound": "Cc1cc(F)ccc1-c1cc(C2CCCN(S(C)(=O)=O)C2)ncc1N(C)C(=O)C(C)(C)c1cc(C(F)(F)F)cc(C(F)(F)F)c1 (racemic) [Example 12]", "Discrete Label": -1}
{"Compound": "CC(=O)N1CCCC(c2cc(-c3ccc(F)cc3C)c(N(C)C(=O)C(C)(C)c3cc(C(F)(F)F)cc(C(F)(F)F)c3)cn2)C1 (racemic) [Example 13]", "Discrete Label": -1}
